# measurement notes: physchem
# condition context: pH 7, aqueous buffer
measure: solubility (µg/mL)

- compound: "CC(=O)Oc1ccccc1C(=O)O [acetylsalicylic acid, reference compound]"
  observed result: 10

* * *

Each record here notes measured solubility.
# measurement notes: Solubility in water of the prepared product

- molecule: "CCCN(CCC)CCOC(=O)c1ccccc1OC(C)=O [dipropylaminoethyl acetylsalicylate.AcOH]"
  solubility: "300 mg/mL"
- molecule: "CC(=O)Oc1ccccc1C(=O)SCCN(C)C"
  solubility: "320 mg/mL"
- molecule: "CCN(CC)CCOC(=O)c1ccccc1OC(C)=O [diethylaminoethyl acetylsalicylate.AcOH]"
  solubility: "300 mg/mL"
- molecule: "CC(=O)Oc1ccccc1C(=O)NCCN(C)C"
  solubility: "350 mg/mL"
- molecule: "CCN(CC)CCCNC(=O)c1ccccc1OC(C)=O"
  solubility: "280 mg/mL"

* * *

# measurement notes: Acute toxicity, oral LD50
# Type: in vivo
# condition context: rat, in vivo, rats, read-out: LD50 orally in rats
measure: LD50 (mg/kg)

- molecule: "CCN(CC)CCOC(=O)c1ccccc1OC(C)=O [diethylaminoethyl acetylsalicylate.AcOH]"
  result units: "mg/kg"
  observed result: 2300

* * *

# measurement notes: physchem
measure: solubility

- compound: "CC(=O)Oc1ccccc1C(=O)OCCN(C)C [dimethylaminoethyl acetylsalicylate.AcOH]"
  observed result: "350 mg/mL"

* * *

# measurement notes: Half-life in whole human blood
measure: half-life

- compound: "CC(=O)Oc1ccccc1C(=O)O [acetylsalicylic acid, reference compound]"
  measure: "half-life"
  observed result: "15 min"
